Test system: OVCAR-3 human ovarian cancer cell line
Experiment: MTT cytostatic-cytotoxic activity, OVCAR-3
Assay type: cell-based
Settings: OVCAR-3, 48 h treatment
reported-property: TGI

> print(dat)
                                   compound  reported.property  assay.value
1  COc1cc(Cc2nnc3sc(-c4ccc(Cl)cc4)nn23)c(S(=O)(=O)N(C)C)cc1OC [TS63]                TGI        32 µM
2  COc1cc(Cc2nnc3sc(Cc4ccccc4)nn23)c(S(=O)(=O)N(C)C)cc1OC [TS62]                TGI        68 µM
3  COc1cc(Cc2nnc3sc(/C=C/c4ccc(F)cc4)nn23)c(S(=O)(=O)N(C)C)cc1OC [TS25]                TGI        68 µM
4  COc1cc(Cc2nnc3sc(-c4ccccc4N)nn23)c(S(=O)(=O)N(C)C)cc1OC [TS57]                TGI      >100 µM
